Hello, the source for this data is paper PMC7694092, in case you need it.

assay: in vitro; assay type: cell-based; settings: human; BEL-7402 cells; read-out: cytotoxic activity IC50
pIC50: −log10 of the molar value.
PROPERTY_MEASURED: pIC50

The cases that follow already have their pIC50 on record.
MOLECULE	pIC50
C/C=C/C=C/C=C/C(=O)N[C@H]1CCCNC(=O)[C@H](C)N(C)C(=O)[C@H](C(C)C)N(C)C1=O [Compound 6, sclerotiotide B]	< 4.52
CO[C@H](/C=C/C=C/C(=O)N[C@H]1CCCNC(=O)[C@H](C)N(C)C(=O)[C@H](C(C)C)N(C)C1=O)[C@@H](C)O	< 4.52
CC(C)[C@H]1C(=O)N(C)[C@@H](C)C(=O)NCCC[C@H](NC(=O)/C=C/C=C/C=O)C(=O)N1C [Compound 5, sclerotiotide F]	< 4.52
CC(C)[C@H]1C(=O)N(C)[C@@H](C)C(=O)NCCC[C@H](NC(=O)/C=C/C=C/C(=O)O)C(=O)N1C	< 4.52
CO[C@H](C)[C@@H](/C=C/C=C/C(=O)N(C)[C@H]1CCCN(C)C(=O)[C@H](C)N(C)C(=O)[C@H](C(C)C)N(C)C1=O)OC	< 4.52

Req: Could you please provide reported pIC50 for COC(=O)/C=C/C=C/C(=O)N[C@H]1CCCNC(=O)[C@H](C)N(C)C(=O)[C@H](C(C)C)N(C)C1=O ? Thanks!
Resp: < 4.52
